Target: Sialidase B (Streptococcus pneumoniae serotype 4 (strain ATCC BAA-334 / TIGR4)) (UniProt Q54727)
Sequence (whole entry): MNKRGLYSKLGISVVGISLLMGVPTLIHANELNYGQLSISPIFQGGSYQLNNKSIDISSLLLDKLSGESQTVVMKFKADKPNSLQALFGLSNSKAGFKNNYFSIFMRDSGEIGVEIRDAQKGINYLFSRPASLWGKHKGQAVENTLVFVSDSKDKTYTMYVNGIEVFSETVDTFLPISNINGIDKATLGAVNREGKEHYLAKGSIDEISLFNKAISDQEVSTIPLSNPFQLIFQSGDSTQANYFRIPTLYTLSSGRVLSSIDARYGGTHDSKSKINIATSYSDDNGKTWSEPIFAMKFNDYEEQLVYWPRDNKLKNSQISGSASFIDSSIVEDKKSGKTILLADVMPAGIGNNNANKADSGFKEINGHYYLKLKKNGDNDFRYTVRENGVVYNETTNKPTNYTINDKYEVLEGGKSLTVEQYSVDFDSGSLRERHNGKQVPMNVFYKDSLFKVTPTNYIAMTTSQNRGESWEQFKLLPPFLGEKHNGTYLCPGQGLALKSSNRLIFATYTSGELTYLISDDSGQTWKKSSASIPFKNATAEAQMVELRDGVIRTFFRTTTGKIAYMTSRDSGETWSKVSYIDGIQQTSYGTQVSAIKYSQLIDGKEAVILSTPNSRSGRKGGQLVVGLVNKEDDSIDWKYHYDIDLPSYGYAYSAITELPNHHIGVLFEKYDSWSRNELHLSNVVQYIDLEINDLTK
Conditions: at 1 mM
ENDPOINT_NAME: inhibition (%)
Just the number please, in %, no unit attached.

| CHEMICAL_STRUCTURE | OBS_VALUE |
| --- | --- |
| CC(=O)N[C@H]1[C@H]([C@H](O)[C@H](O)CO)OC(C(=O)O)=C[C@@H]1O | 31.9 |
| CC(=O)N[C@H]1[C@H]([C@H](O)[C@H](O)Cn2cc(C[C@H](N)C(=O)O)nn2)OC(C(=O)O)=C[C@@H]1O | 35.5 |
| CC(=O)N[C@H]1[C@H]([C@H](O)[C@H](O)CN=[N+]=[N-])OC(C(=O)O)=C[C@@H]1O | 35.2 |

Next item in the queue.
Request: Which inhibition is reported for this compound? CC(=O)N[C@H]1[C@H]([C@H](O)[C@H](O)Cn2cc(C[C@H](N)C(=O)N[C@H](CCC(=O)O)C(N)=O)nn2)OC(C(=O)O)=C[C@@H]1O
Result: 39

Attribution: ChEMBL document CHEMBL4261630
